# kd per record follows
Target: T1, human Amyloid beta 1-42 peptide (Homo sapiens, UniProt P05067)
T1 construct: biotinylated human Amyloid beta 1-42 peptide (rpeptide, USA; cat: A1117); purchased rPeptide, USA A1117; host or cells: synthetic peptide
T1 sequence (P05067 672-713): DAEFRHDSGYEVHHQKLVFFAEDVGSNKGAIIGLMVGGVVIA
Assay: Surface Plasmon Resonance kinetic profiling of purified scFv (ProteOn)
Assay type: binding
Settings: biotinylated human Amyloid beta 1-42 on streptavidin chip
MEASURED_PARAMETER: kd (s⁻¹)

MOLECULE: Abet0343: optimized anti-Aβ1-42 clone from VH1:VH2:VL3 recombination library (protein, left off: small tags and cut ends, optimized anti-Aβ1-42 clone from VH1:VH2:VL3 recombination library) scFv (part 1 of 2): EVQLLESGGGLVQPGGSLRLSCAASGFNFNHQVMWWVRQAPGKGLEWVSVIGKTNENIAYADSVKGRFTISRDNSKNTLYLQMNSLRAEDTAVYYCAREWMDHSRPYYYYGMDVWGQGTLVTVSS scFv (part 2 of 2): QSVLTQPPSVSVSPGQTASITCSGHNLEDKFASWYQQKSGQSPVLVIYRDDKRPSGIPERFSASNSGHTATLTISGTQATDEADYYCSSQDTVTRVFGGGTKLTVL
ENDPOINT_VALUE: 2.25e-05
//
MOLECULE: Abet0319: optimized anti-Aβ1-42 clone derived from Abet0144-GL (protein, left off: small tags and cut ends, optimized anti-Aβ1-42 clone derived from Abet0144-GL) scFv (part 1 of 2): EVQLLESGGGLVQPGGSLRLSCAASVSVYNKDTMWWVRQAPGKGLEWVSVIGSSGGTTVYADSVKGRFTISRDNSKNTLYLQMNSLRAEDTAVYYCAREWMDHSRPYYYYGMDVWGQGTLVTVSS scFv (part 2 of 2): SYELTQPPSVSVSPGQTASITCSGHNIMDKWVSWYQQKPGRSPALVIYRDDKRPSGIPERFSASNSGHTATLTISGTQATDEADYYCSSQDTVTRVFGGGTKLTVL
ENDPOINT_VALUE: 0.000129
